Test system: 9 L cell line
method: IC50 of PAC-1 with the 9 L cell line
Type: cell-based
condition_details: Rattus norvegicus; 72 hour experiment; initial assessment
result_type: IC50

input: Please look up its IC50: C=CCc1cccc(/C=N/NC(=O)CN2CCN(Cc3ccccc3)CC2)c1O
output: ~7 µM
